- target.system: T1, full length PEAK3 (PEAK3^FL, residues 1-473), from E. coli, phosphorylated by Src (human, UniProt Q6ZS72 1-473, phosphorylated with Src kinase (Y24 is the site shown for PEAK3^FL by MS/MS); other Src sites not stated; biotin (EZ-Link NHS-PEG4-Biotin, 1:1 molar ratio))
- T1 construct: also called PEAK3-FL E.coli (+ Src phosphorylation); source: E. coli C41 (DE3), purified; phosphorylated in vitro with recombinant Src kinase domain
- T1 sequence (looked up): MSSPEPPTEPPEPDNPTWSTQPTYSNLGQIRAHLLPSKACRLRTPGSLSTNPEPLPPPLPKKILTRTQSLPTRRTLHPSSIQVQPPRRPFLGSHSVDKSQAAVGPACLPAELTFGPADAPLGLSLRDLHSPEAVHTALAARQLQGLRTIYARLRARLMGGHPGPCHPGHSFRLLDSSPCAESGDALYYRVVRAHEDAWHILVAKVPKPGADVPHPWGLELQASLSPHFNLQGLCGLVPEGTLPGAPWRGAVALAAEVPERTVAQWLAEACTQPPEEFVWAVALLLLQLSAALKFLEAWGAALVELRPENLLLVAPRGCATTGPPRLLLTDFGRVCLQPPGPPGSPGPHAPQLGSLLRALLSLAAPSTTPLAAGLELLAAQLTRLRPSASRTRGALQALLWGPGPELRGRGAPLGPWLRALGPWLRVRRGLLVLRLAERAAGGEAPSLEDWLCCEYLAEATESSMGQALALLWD
- test.name: SPR; biotinylated PEAK proteins (with or without Src phosphorylation) captured with a biotin CAPture kit, CrkII NSH3 as analyte; Biacore 8K+, 20 °C, HBS-TP (150 mM NaCl); 1 M NaCl regeneration; steady state
- test.settings: both partners purified
assay.endpoint: Kd (µM)
One number for each entry, in µM.

Enquiry: Output Kd of CrkII N-terminal SH3 domain (CrkII^NSH3, residues 134-191) (domain or fragment, human, UniProt P46108-1 134-191, looked up, human CrkII NSH3 domain, UniProt P46108-1, residues 134-191; Amine coupled to a CM5 chip in a2; analyte in a4; in the syringe in ITC) AEYVRALFDFNGNDEEDLPFKKGDILRIRDKPEEQWWNAEDSEGKRGMIPVPYVEKYR
Return: 13.1
